Values from patent US20160257744A1

This section presents binders with their documented pIC50 values.
# assayed target: T1, interleukin 5 (IL5) (human, UniProt P05113 20-134)
# T1 construct: also called human IL5 (R&D Systems)
# T1 sequence (looked up): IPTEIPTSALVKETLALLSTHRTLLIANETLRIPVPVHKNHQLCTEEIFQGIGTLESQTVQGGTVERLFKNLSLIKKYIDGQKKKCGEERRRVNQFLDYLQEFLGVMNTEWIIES
# assay remarks: phage competition ELISA (phage IC50), soluble IL5 against IL5-coated wells
pIC50: −log10 of the molar value.

- binder: "2B.35 (Fab, V domains shown) VH: EVQLVQSGAEVKKPGASVKVSCKASGYTFTDYFIHWVRQAPGQGLEWIAGIVYDATGFTTYADTFKGRVTITRDPSTSTVYLELSSLRSEDTAVYYCARGGIFYGMDYWGQGTLVTVSS VL: DIQMTQSPSSLSASVGDRVTITCKASQSVINDAAWYQQKPGKAPKLLIYYTSHRYTGVPSRFSGSGSGTDFTLTISSLQEDFATYYCQQDYTSPWTFGQGTKVEIKR"
  pIC50: 8.82
- binder: "1C.60 (Fab, V domains shown, same clone as m17 and m19, here in the phage format) VH: EVQLVQSGAEVKKPGASVKVSCKASGYTFTDYFIHWVRQAPGQGLEWIAGIVYDATGFTVYADDFKGRVTITRDTSTSTAYLELSSLRSEDTAVYYCARGGIFYGMDYWGQGTLVTVSS VL: DIQMTQSPSSLSASVGDRVTITCKASQSVINDAAWYQQKPGKAPKLLIYYTSHRYTGVPSRFSGSGSGTDFTLTISSLQEDFATYYCQQDYKHPWTFGQGTKVEIKR"
  pIC50: 8.44
- binder: "2B.28 (Fab, V domains shown) VH: EVQLVQSGAEVKKPGASVKVSCKASGYTFTDYFIHWVRQAPGQGLEWIAGIVYDATGFTTYADNFKGRVTITRDMSTSTVYLELSSLRSEDTAVYYCARGGIFYGMDYWGQGTLVTVSS VL: DIQMTQSPSSLSASVGDRVTITCKASQSVINDAAWYQQKPGKAPKLLIYYTSHRYTGVPSRFSGSGSGTDFTLTISSLQEDFATYYCQQDYTSPWTFGQGTKVEIKR"
  pIC50: 8.96
